Test: Mitochondrial toxicity (Glu/Gal) assay
Format: cell-based
Conditions: mitotoxicity score, Glu/Gal assay
Text: The compounds of the invention/examples may have advantages associated with in vitro potency, kill kinetics (i.e. bactericidal effect) in vitro, PK properties, food effect, safety/toxicity (including liver toxicity, coagulation, 5-LO oxygenase), metabolic stability, Ames II negativity, MNT negativity, aqueous based solubility (and ability to formulate) and/or cardiovascular effect e.g. on animals (e.g. anesthetized guinea pig). […]
Value type: Score

Molecular string	Value type	Test value
CCc1nc2nc3c(cn2c1C(=O)NCc1ccc(-c2nc4n(n2)CCN(S(=O)(=O)C(F)(F)F)C4)c(F)c1)CCOC3	Score	[x]1
O=C(NCc1ccc(-c2cc3n(n2)CCN(S(=O)(=O)C(F)(F)F)C3)cc1)c1c(C(F)(F)F)nc2ccccn12	Score	[x]1
Cc1cnc2nc(C3CC3)c(C(=O)NCc3ccc(-c4nc5n(n4)CCN(S(=O)(=O)C(F)(F)F)C5)c(C)c3)n2c1	Score	[x]1
Cc1cn2c(C(=O)NCc3ccc(-c4nc5n(n4)CCN(S(=O)(=O)C(F)(F)F)C5)cc3)c(C)nc2s1	Score	[x]3
CCc1nc2ncc(C)cn2c1C(=O)NCc1cccc(-c2cnn3c2CN(S(=O)(=O)C(F)(F)F)CC3)c1	Score	[x]1
CCc1nc2ncc(C)cn2c1C(=O)NCc1ccc(C2CCN(c3nc4n(n3)CCN(S(=O)(=O)C(F)(F)F)C4)CC2)cc1	Score	[x]3
CCc1nc2nc(C)c(C)cn2c1C(=O)NCc1ccc(-c2nc3n(n2)CCN(S(=O)(=O)C(F)(F)F)C3)cc1	Score	[x]1

* * *

Experiment: LM CLint (microsomal stability), dog
Type: in vitro ADME
Settings: microsomes, 1 μm, read-out: CLint Microsomes, Dog (d)
Excerpt: The compounds of the invention/examples may have advantages associated with in vitro potency, kill kinetics (i.e. bactericidal effect) in vitro, PK properties, food effect, safety/toxicity (including liver toxicity, coagulation, 5-LO oxygenase), metabolic stability, Ames II negativity, MNT negativity, aqueous based solubility (and ability to formulate) and/or cardiovascular effect e.g. on animals (e.g. anesthetized guinea pig). […]

Molecular string	microsomal CLint at 1 µM [µL/min/mg]
CCc1nc2ccc(C)cn2c1C(=O)NCc1ccc(-c2cc3n(n2)CCN(S(=O)(=O)C(F)(F)F)C3)cc1	189

* * *

assay: Chemical stability testing (LCMS); assay type: physicochemical; conditions: 72 h, 30 µM, pH 1.6
Value type: chemical stability, % by LCMS (%)

Compound	Units symbol	Test value
CCc1nc2ncc(Cl)cn2c1C(=O)NCc1ccc(-c2nc3n(n2)CCN(S(=O)(=O)C(F)(F)F)C3)cc1 [Compound 2]	%	90.52
CCc1nc2nc(N)c(Cl)cn2c1C(=O)NCc1ccc(-c2nc3n(n2)CCN(S(=O)(=O)C(F)(F)F)C3)c(F)c1 [Compound 12]	%	97.06
CCc1nc2ccc(Cl)cn2c1C(=O)NCc1cnc(-c2nc3n(n2)CCN(S(=O)(=O)C(F)(F)F)C3)c(F)c1 [Compound 15]	%	97.49
CCc1nc2cc(N)c(Cl)cn2c1C(=O)NCc1ccc(-c2nc3n(n2)CCN(S(=O)(=O)C(F)(F)F)C3)c(F)c1 [Compound 14]	%	100
CCc1nc2ncc(C)cn2c1C(=O)NCc1ccc(-c2nc3n(n2)CCN(S(=O)(=O)C(F)(F)F)C3)c(F)c1 [Compound 7]	%	100
CCc1nc2cc(OC)c(Cl)cn2c1C(=O)NCc1ccc(-c2nc3n(n2)CCN(S(=O)(=O)C(F)(F)F)C3)c(F)c1 [Compound 10]	%	100

* * *

test: Mitochondrial toxicity (Glu/Gal) assay; format: cell-based; settings: ratio IC50 glu / IC50 gal

Molecular string	Δ IC50, glu/IC50, gal
CCc1nc2nc3c(cn2c1C(=O)NCc1ccc(-c2nc4n(n2)CCN(S(=O)(=O)C(F)(F)F)C4)c(F)c1)CCOC3	>1.09
O=C(NCc1ccc(-c2cn3c(n2)CN(S(=O)(=O)C(F)(F)F)CC3)cc1)c1c(C(F)F)nc2ccccn12	>9.96
Cc1ccc2nc(C3CC3)c(C(=O)NCc3ccc(-c4nc5n(n4)CCN(S(=O)(=O)C(F)(F)F)C5)cc3)n2c1	1.35
Cc1cnc2nc(C3CC3)c(C(=O)NCc3ccc(-c4cc5n(n4)CCN(S(=O)(=O)CC(C)C)C5)cc3)n2c1	>1.29

* * *

assay: Mitochondrial toxicity (Glu/Gal) assay; assay type: cell-based; details: ratio IC50 glu / IC50 gal

Compound	Δ IC50, glu/IC50, gal
Cc1cnc2nc(C3CC3)c(C(=O)NCc3ccc(-c4cc5n(n4)CCN(CC(F)(F)F)C5)cc3)n2c1	>1.13
CCc1nc2ncc(C)cn2c1C(=O)NCc1cccc(-c2cnn3c2CN(S(=O)(=O)C(F)(F)F)CC3)c1	1.47
CCc1nc2c(F)cc(Cl)cn2c1C(=O)NCc1ccc(-c2nc3n(n2)CCN(S(=O)(=O)C(F)(F)F)C3)cc1	1.65
CCc1nc2sc(C)cn2c1C(=O)NCc1ccc(-c2nc3n(n2)CCN(S(=O)(=O)C(F)(F)F)C3)cc1	>1.26
O=C(NCc1ccc(-c2cc3n(n2)CCN(S(=O)(=O)C(F)(F)F)C3)cc1)c1c(C(F)F)nc2ccccn12	>8.01
CCc1nc2cc(C)c(Cl)cn2c1C(=O)NCc1cnc(-c2nc3n(n2)CCN(S(=O)(=O)C(F)(F)F)C3)c(F)c1	>1.3
CCc1nc2ncc(C)cn2c1C(=O)NCc1ccc(C2CCN(c3nc4n(n3)CCN(S(=O)(=O)C(F)(F)F)C4)C2)cc1 (centres unmarked)	11.37
CCc1nc2ncc(C)cn2c1C(=O)NCc1ccc(-c2cc3n(n2)CCN(S(=O)(=O)C(F)(F)F)C3)c(C)c1	>3.2
Cc1cnc2nc(C3CC3)c(C(=O)NCc3ccc(-c4nn5c(c4C)CN(S(=O)(=O)C(F)(F)F)CC5)cc3)n2c1	>6.69
CCc1nc2ncc(Cl)cn2c1C(=O)NCc1ccc(-c2cc3n(n2)CCN(S(=O)(=O)C(F)(F)F)C3)cc1	>12.85
CCc1nc2ncc(C)cn2c1C(=O)NCc1ccc(N2CCC(c3nc4n(n3)CCN(S(=O)(=O)C(F)(F)F)C4)CC2)cc1	>3.56
CCc1nc2ccc(C3CC3)cn2c1C(=O)NCc1ccc(-c2nc3n(n2)CCN(S(=O)(=O)C(F)(F)F)C3)cc1	2.34
O=C(NCc1ccc(-c2nc3n(n2)CCN(S(=O)(=O)C(F)(F)F)C3)cc1)c1c(C2CC2)nc2ncc(Cl)cn12	>1.3
CCc1nc2ncc(C)cn2c1C(=O)NCc1ccc(C2CCN(c3nc4n(n3)CCN(S(=O)(=O)C(F)(F)F)C4)CC2)cc1	>11.38

* * *

test: Chemical stability testing (LCMS); type: physicochemical; settings: 48 h, 30 µM

Molecular string	chemical stability, % by LCMS (%)
CCc1nc2ncc(C)cn2c1C(=O)NCc1ccc(-c2cc3n(n2)CCN(S(=O)(=O)C(F)(F)F)C3)cc1	100
CCc1nc2ncc(C)cn2c1C(=O)NCCc1ccc(-c2nc3n(n2)CCN(S(=O)(=O)C(F)(F)F)C3)cc1	98
CCc1nc2ncc(C)cn2c1C(=O)NCc1ccc(-c2cc3n(n2)CCN(S(=O)(=O)C(F)(F)F)C3)c(F)c1	100
CCc1nc2ccc(C)cn2c1C(=O)NCc1ccc(-c2nc3n(n2)CCN(S(=O)(=O)C(F)(F)F)C3)cc1	100

* * *

test: LM CLint (microsomal stability), human; format: in vitro ADME; settings: liver microsomes, read-out: CLint Microsomes, Human (h)

Molecule	microsomal CLint at 1 µM
CCc1nc2nc3c(cn2c1C(=O)NCc1ccc(-c2nc4n(n2)CCN(S(=O)(=O)C(F)(F)F)C4)c(F)c1)CCOC3 [Compound 18]	20.1 µL/min/mg
CCc1nc2ncc(C)cn2c1C(=O)NCc1cnc(-c2cc3n(n2)CCN(S(=O)(=O)C(F)(F)F)C3)c(C)c1 [Compound 129]	50.4 µL/min/mg
Cc1cnc2nc(C3CC3)c(C(=O)NCc3ccc(-c4nc5n(n4)CCN(S(=O)(=O)C(F)(F)F)C5)cc3)n2c1 [Compound 42]	47.1 µL/min/mg
Cc1cnc2nc(C3CC3)c(C(=O)NCc3ccc(-c4nc5n(n4)CCN(S(=O)(=O)C(F)(F)F)C5)c(C)c3)n2c1 [Compound 98]	51.8 µL/min/mg
CCc1nc2ccc(Cl)cn2c1C(=O)NCc1cnc(-c2nc3n(n2)CCN(S(=O)(=O)C(F)(F)F)C3)c(F)c1 [Compound 15]	16.2 µL/min/mg
CCc1nc2ccc(C)cn2c1C(=O)NCc1ccc(-c2nc3n(n2)CCN(S(=O)(=O)C(F)(F)F)C3)cc1 [Compound 24]	169 µL/min/mg
CCc1nc2ncc(C)cn2c1C(=O)NCc1ccc(-c2cc3n(n2)CCN(S(=O)(=O)C(F)(F)F)C3)nc1 [Compound 127]	31.5 µL/min/mg
